The reported measurements were obtained from the supplement of paper PMC8671470.

Test system: myeloid leukemia patient primary cells Pat.14
Assay: cell viability (% survival relative to DMSO control); higher = less cytotoxic
Conditions: 100 nM; 72 h
# cell viability per entry
Just the number please, in %, no unit attached.

INSERT INTO assay_data (molecule, test_result) VALUES
  ('CC(=O)Nc1nc(C)c(-c2ccc(Cl)c(S(=O)(=O)NCCO)c2)s1', 52.8);

Per the records, this molecule ( C=CCN(C)CCCCCCOc1ccc(C(=O)c2ccc(Br)cc2)c(F)c1.O=C(O)/C=C/C(=O)O [Ro 48-8071 fumarate] ) has cell viability equal to 91.9

Looking up O=C(/C=C/c1ccc(O)c(O)c1)OCCc1ccccc1 , I found its cell viability recorded as 80.5

get_value(item= CC(C)(C)c1ccc(S(=O)(=O)NCc2ccc(C(=O)Nc3cccnc3)cc2)cc1 , readout=cell viability) returns 9.36

Short answer for Cc1cc2c(C(C)C)c(O)c(O)c(C=O)c2c(O)c1-c1c(C)cc2c(C(C)C)c(O)c(O)c(C=O)c2c1O : cell viability was 69.1
